# maps each entry to its acute toxicity, oral (lethal dose)
# System: male mice of dd-strain
# Format: in vivo
# measurement conditions: death of animals 72 hours following administration

Guide cases for acute toxicity, oral (lethal dose), answers given:
compound	result
CC(C)Cc1ccc(C(C)C(=O)OCC(F)(F)F)cc1 (centres unmarked)	1000 to 2000 mg/kg
CCOCOC(=O)C(C)c1ccc(CC(C)C)cc1 (centres unmarked)	> 2000 mg/kg
CC(C)Cc1ccc(C(C)C(=O)OCCO)cc1 (centres unmarked)	> 2000 mg/kg
CC(C)Cc1ccc(C(C)C(=O)OCCCN(C)C)cc1 (centres unmarked)	500 to 1000 mg/kg

Request the reported acute toxicity, oral (lethal dose) associated with CCOCCOC(=O)C(C)c1ccc(CC(C)C)cc1 (centres unmarked) > 2000 mg/kg

###

# Test system: male mice of dd-strain
# Type: in vivo
# measurement conditions: death of animals 72 hours following administration
# maps each entry to its acute toxicity, oral (lethal dose)

compound	measure	result
CC(C)Cc1ccc(C(C)C(=O)OCc2ccncc2)cc1 (stereo not drawn)	acute toxicity, oral (lethal dose)	> 2000 mg/kg
COCOC(=O)C(C)c1ccc(CC(C)C)cc1 (stereo not drawn)	acute toxicity, oral (lethal dose)	500 to 1000 mg/kg
COCCOC(=O)C(C)c1ccc(CC(C)C)cc1 (stereo not drawn)	acute toxicity, oral (lethal dose)	1000 to 2000 mg/kg
CC(C)Cc1ccc(C(C)C(=O)OCc2cccnc2)cc1 (stereo not drawn)	acute toxicity, oral (lethal dose)	1000 to 2000 mg/kg
CCCCCCOC(=O)C(C)c1ccc(CC(C)C)cc1 (stereo not drawn)	acute toxicity, oral (lethal dose)	> 2000 mg/kg

API: the following record is the query input.
Request the reported acute toxicity, oral (lethal dose) associated with COC(=O)C(C)c1ccc(CC(C)C)cc1 (stereo not drawn) > 2000 mg/kg

###

# System: carrageenin-induced leakage of the pigment, dorsal skin
# experiment summary: Anti-inflammatory activity for topical route (carrageenin, leakage of pigment in dorsal skin)
# Format: in vivo, rat (Wistar-strain)
# measurement conditions: 1% in polyethylene glycol 300, percent inhibition divided by that of ibuprofen
# maps each entry to its anti-inflammatory effect, topical (relative inhibition, ibuprofen = 1.0)
A bare number is all that is needed in reply.

compound	assayed target	number
COc1ccc(COC(=O)C(C)c2ccc(CC(C)C)cc2)cc1 (stereo not drawn)	carrageenin-induced leakage of the pigment, dorsal skin	2.3
CCOCCOC(=O)C(C)c1ccc(CC(C)C)cc1 (stereo not drawn)	carrageenin-induced leakage of the pigment, dorsal skin	1.2
CC(C)Cc1ccc(C(C)C(=O)OCCOCCO)cc1 (stereo not drawn)	carrageenin-induced leakage of the pigment, dorsal skin	2.3
COC(=O)C(C)c1ccc(CC(C)C)cc1 (stereo not drawn)	carrageenin-induced leakage of the pigment, dorsal skin	3.5
CC(C)Cc1ccc(C(C)C(=O)OCCCN(C)C)cc1 (stereo not drawn)	carrageenin-induced leakage of the pigment, dorsal skin	2.2

Request the reported anti-inflammatory effect, topical (relative inhibition, ibuprofen = 1.0) associated with CCCCCCOC(=O)C(C)c1ccc(CC(C)C)cc1 (stereo not drawn) 3.5

###

# System: male mice of dd-strain
# Format: in vivo
# measurement conditions: death of animals 72 hours following administration
# maps each entry to its acute toxicity, oral (lethal dose)

Guide cases for acute toxicity, oral (lethal dose), answers given:
molecule	assayed target	acute toxicity, oral (lethal dose)
CC(=O)OCCOC(=O)C(C)c1ccc(CC(C)C)cc1 (centres unmarked)	male mice of dd-strain	> 2000 mg/kg
CC(C)Cc1ccc(C(C)C(=O)OCC2CCCO2)cc1 (centres unmarked)	male mice of dd-strain	1000 to 2000 mg/kg
CCN(CC)CCOC(=O)C(C)c1ccc(CC(C)C)cc1 (centres unmarked)	male mice of dd-strain	500 to 1000 mg/kg

API: the following record is the query input.
Recall the recorded acute toxicity, oral (lethal dose) for CC(C)Cc1ccc(C(C)C(=O)OCc2c(Cl)cccc2Cl)cc1 (centres unmarked) with male mice of dd-strain and state it. > 2000 mg/kg

###

# Test system: carrageenin-induced leakage of the pigment, dorsal skin
# experiment summary: Anti-inflammatory activity for topical route (carrageenin, leakage of pigment in dorsal skin)
# Format: in vivo, rat (Wistar-strain)
# measurement conditions: 1% in polyethylene glycol 300, percent inhibition divided by that of ibuprofen
measure: anti-inflammatory effect, topical (relative inhibition, ibuprofen = 1.0)
A bare number is all that is needed in reply.

Guide cases for anti-inflammatory effect, topical (relative inhibition, ibuprofen = 1.0), answers given:
compound	number
CC(C)Cc1ccc(C(C)C(=O)OCC(F)(F)F)cc1 (stereo not shown)	3.6
CC(C)Cc1ccc(C(C)C(=O)OCc2c(Cl)cccc2Cl)cc1 (stereo not shown)	2.1
CC(C)Cc1ccc(C(C)C(=O)OCc2ccccn2)cc1 (stereo not shown)	4.0

Request the reported anti-inflammatory effect, topical (relative inhibition, ibuprofen = 1.0) associated with CC(C)Cc1ccc(C(C)C(=O)OCc2ccccc2)cc1 (stereo not shown) 3.1

Check CC(C)Cc1ccc(C(C)C(=O)OCc2ccncc2)cc1 (stereo not shown) too. 2.7

Check COCOC(=O)C(C)c1ccc(CC(C)C)cc1 (stereo not shown) too. 2.5

Check CC(C)Cc1ccc(C(C)C(=O)OCCN2CCN(C)CC2)cc1 (stereo not shown) too. 2.5

###

# Test system: carrageenin-induced leakage of the pigment, dorsal skin
# experiment summary: Anti-inflammatory activity for topical route (carrageenin, leakage of pigment in dorsal skin)
# Type: in vivo, rat (Wistar-strain)
# measurement conditions: 1% in polyethylene glycol 300, percent inhibition divided by that of ibuprofen
# maps each entry to its anti-inflammatory effect, topical (relative inhibition, ibuprofen = 1.0)
A bare number is all that is needed in reply.

Guide cases for anti-inflammatory effect, topical (relative inhibition, ibuprofen = 1.0), answers given:
compound	assayed target	number
CC(C)Cc1ccc(C(C)C(=O)OCc2cccc(F)c2)cc1 (stereo not shown)	carrageenin-induced leakage of the pigment, dorsal skin	0.9
CC(C)Cc1ccc(C(C)C(=O)OCC2CCCO2)cc1 (stereo not shown)	carrageenin-induced leakage of the pigment, dorsal skin	3.1
CCOC(=O)COC(=O)C(C)c1ccc(CC(C)C)cc1 (stereo not shown) [Compound 19]	carrageenin-induced leakage of the pigment, dorsal skin	1.9

API: the following record is the query input.
Request the reported anti-inflammatory effect, topical (relative inhibition, ibuprofen = 1.0) associated with CC(C)Cc1ccc(C(C)C(=O)OCCN2CCOCC2)cc1 (stereo not shown) 1.6

###

# System: male mice of dd-strain
# Type: in vivo
# measurement conditions: death of animals 72 hours following administration
measure: acute toxicity, oral (lethal dose)

Guide cases for acute toxicity, oral (lethal dose), answers given:
compound	acute toxicity, oral (lethal dose)
CC(C)Cc1ccc(C(C)C(=O)OCCN2CCN(C)CC2)cc1 (stereo not drawn)	1000 to 2000 mg/kg
CC(C)Cc1ccc(C(C)C(=O)OCc2ccc(Cl)cc2)cc1 (stereo not drawn)	> 2000 mg/kg
CC(C)Cc1ccc(C(C)C(=O)OCc2ccccc2)cc1 (stereo not drawn)	> 2000 mg/kg
CC(C)Cc1ccc(C(C)C(=O)OCc2ccccn2)cc1 (stereo not drawn)	1000 to 2000 mg/kg

Request the reported acute toxicity, oral (lethal dose) associated with CCOC(=O)COC(=O)C(C)c1ccc(CC(C)C)cc1 (stereo not drawn) > 2000 mg/kg

Check CC(C)Cc1ccc(C(C)C(=O)OCc2ccccc2Cl)cc1 (stereo not drawn) too. > 2000 mg/kg

###

# Tested on: male mice of dd-strain
# Type: in vivo
# measurement conditions: death of animals 72 hours following administration
# maps each entry to its acute toxicity, oral (lethal dose)

compound	assayed target	acute toxicity, oral (lethal dose)
CCCOC(=O)C(C)c1ccc(CC(C)C)cc1 (stereo not shown) [Compound 2]	male mice of dd-strain	> 2000 mg/kg
CC(C)Cc1ccc(C(C)C(=O)OCc2cccnc2Cl)cc1 (stereo not shown)	male mice of dd-strain	> 2000 mg/kg
CC(C)Cc1ccc(C(C)C(=O)OCC(O)CO)cc1 (stereo not shown) [Compound 11]	male mice of dd-strain	1000 to 2000 mg/kg
CC(C)Cc1ccc(C(C)C(=O)OCCN2CCOCC2)cc1 (stereo not shown)	male mice of dd-strain	1000 to 2000 mg/kg
CC(C)Cc1ccc(C(C)C(=O)OCC2CC2)cc1 (stereo not shown)	male mice of dd-strain	2000 mg/kg
CC(C)Cc1ccc(C(C)C(=O)OCCOCCO)cc1 (stereo not shown) [Compound 16]	male mice of dd-strain	> 2000 mg/kg

API: the following record is the query input.
Recall the recorded acute toxicity, oral (lethal dose) for CC(C)Cc1ccc(C(C)C(=O)OCCN(C)C)cc1 (stereo not shown) with male mice of dd-strain and state it. 1000 to 2000 mg/kg
